Tested on: p-ERK in AsPC-1 cells (KRAS^G12D mutation, pancreatic cancer)
Experiment: AsPC-1 cell p-ERK inhibition test, Experimental Example 2
Conditions: Homo sapiens, ASPC1, read-out: AsPC-1 p-ERK IC50 (nM)

[
  {
    "COMPOUND": "C=C1CN2CCC[C@@]2(COc2nc3c(c(N4CC5CCC(C4)N5)n2)CO[C@H](c2c(F)c(N)cc(C#CCl)c2C(F)(F)F)C3)C1 [Trifluoroacetate of Compound 7]",
    "TARGET_SYSTEM": "p-ERK in AsPC-1 cells (KRAS^G12D mutation, pancreatic cancer)",
    "IC50 (nM)": 24.9
  }
]
